Taken from ChEMBL document CHEMBL4190309.

test system: Pseudomonas aeruginosa; assay: Antibacterial activity against Pseudomonas aeruginosa ATCC 27853 assessed as diameter of inhibition zone at 100 uM after 24 hrs by cup diffusion method; format: functional; conditions: ATCC 27853, 24 h, read-out: DIZ
quantity measured: zone of inhibition at 100 µM (mm)
Give bare numbers, in mm.

INSERT INTO measurements (molecule, quantity_measured, readout_units, meas_value) VALUES
  ('O=C(OCCCl)C1=C2c3ccccc3S(=O)(=O)N2CC1', 'zone of inhibition at 100 µM', 'mm', 18);

Provide reported zone of inhibition at 100 µM for each item, in the same order as listed.
1. CC1(C)[C@H]2CC[C@]1(C)[C@H](OC(=O)C1=C3c4ccccc4S(=O)(=O)N3CC1)C2
2. O=C(Nc1ccc([N+](=O)[O-])cc1)C1=C2c3ccccc3S(=O)(=O)N2CC1
3. COc1ccc(NC(=O)C2=C3c4ccccc4S(=O)(=O)N3CC2)cc1
4. COC(=O)C1=C2c3ccccc3S(=O)(=O)N2CC1
5. CC1(C)S[C@@H]2[C@H](NC(=O)[C@H](N)c3ccccc3)C(=O)N2[C@H]1C(=O)O [AMPICILLIN]
6. O=C(Nc1ccccc1)C1=C2c3ccccc3S(=O)(=O)N2CC1

1: 14; 2: 14; 3: 14; 4: 16; 5: 20; 6: 12

Provide reported zone of inhibition at 100 µM for each item, in the same order as listed.
1. CCOC(=O)C1=C2c3ccccc3S(=O)(=O)N2CC1
2. CC(C)[C@@H]1CC[C@@H](C)C[C@H]1OC(=O)C1=C2c3ccccc3S(=O)(=O)N2CC1

[14, 18]

If you can, please state the reported zone of inhibition at 100 µM value of Cc1ccccc1NC(=O)C1=C2c3ccccc3S(=O)(=O)N2CC1 .
18

###

system: Pseudomonas aeruginosa; experiment: Antibacterial activity against Pseudomonas aeruginosa ATCC 27853 after 24 hrs by serial dilution method; assay type: functional; settings: ATCC 27853, 24 h
Record form. Attribute: MIC. Fill in for each entry.
One number for each entry, in µg/mL.

INSERT INTO measurements (smiles_input, system_under_test, quantity_measured, readout_units, meas_value) VALUES
  ('O=C(OCCCl)C1=C2c3ccccc3S(=O)(=O)N2CC1', 'Pseudomonas aeruginosa', 'MIC', 'µg/mL', 20);

Provide reported MIC for each item, in the same order as listed.
1. CC(C)[C@@H]1CC[C@@H](C)C[C@H]1OC(=O)C1=C2c3ccccc3S(=O)(=O)N2CC1
2. COC(=O)C1=C2c3ccccc3S(=O)(=O)N2CC1
3. COc1ccc(NC(=O)C2=C3c4ccccc4S(=O)(=O)N3CC2)cc1

25
14
33

###

system: Escherichia coli; assay: Antibacterial activity against Escherichia coli ATCC 25922 after 24 hrs by serial dilution method; assay type: functional; settings: ATCC 25922, 24 h
Strictly below 20 µg/mL in MIC: TRUE. Otherwise: FALSE.

Previously resolved entries follow.
INSERT INTO results (smiles_input, class_name) VALUES
  ('CCOC(=O)C1=C2c3ccccc3S(=O)(=O)N2CC1', 'TRUE'),
  ('CC(C)[C@@H]1CC[C@@H](C)C[C@H]1OC(=O)C1=C2c3ccccc3S(=O)(=O)N2CC1', 'FALSE'),
  ('COc1ccc(NC(=O)C2=C3c4ccccc4S(=O)(=O)N3CC2)cc1', 'FALSE'),
  ('O=C(Nc1ccccc1)C1=C2c3ccccc3S(=O)(=O)N2CC1', 'FALSE'),
  ('O=C(Nc1ccc([N+](=O)[O-])cc1)C1=C2c3ccccc3S(=O)(=O)N2CC1', 'FALSE');

We now examine a further molecule.
Field: below-cutoff. Rule: recorded MIC strictly less than 20 µg/mL. Subject: Cc1ccccc1NC(=O)C1=C2c3ccccc3S(=O)(=O)N2CC1
TRUE
